Property: Emission Bandwidth [cm^-1]; scope: individual molecules
# testDescription: Comparison of spectral properties of reactive dyes, Table 1
# Assay type: physicochemical
# setupConditions: full bandwidth at half peak height
Form entry: value (cm⁻¹) — number only.

> print(dat)
                             smilesnotation           parametermeasured  unitstring  resultvalue
1  NNC(=O)COc1cc(S(=O)(=O)[O-])c2ccc3c(S(=O)(=O)[O-])cc(S(=O)(=O)[O-])c4ccc1c2c43.[Na+].[Na+].[Na+]  Emission Bandwidth [cm^-1]        cm⁻¹         2168
2  O=S(=O)(O)c1cc(N=C=S)c2ccc3c(S(=O)(=O)O)cc(S(=O)(=O)O)c4ccc1c2c34  Emission Bandwidth [cm^-1]        cm⁻¹         3634
3           Cc1c(CC(=O)O)c(=O)oc2cc(O)ccc12  Emission Bandwidth [cm^-1]        cm⁻¹         2668

Next item in the queue.
Prompt line: What does the data say about its Emission Bandwidth [cm^-1]? Entry: Cc1c(CC(=O)O)c(=O)oc2cc(N)ccc12
Response line: 2858

====

# testDescription: Comparison of spectral properties of reactive dyes, Table 1
# Type: physicochemical
# label = met if Em. Max. >= 500 nm else not met

Below, 3 compounds whose answers are already recorded.
> print(dat)
                             smilesnotation  assignedlabel
1  O=S(=O)(O)c1cc(N=C=S)c2ccc3c(S(=O)(=O)O)cc(S(=O)(=O)O)c4ccc1c2c34        not met
2           Cc1c(CC(=O)O)c(=O)oc2cc(N)ccc12        not met
3         O=C(O)CCCc1ccc2ccc3cccc4ccc1c2c34        not met

Prompt line: Test whether the compound CN(C)c1cccc2c(S(=O)(=O)O)cccc12 records Em. Max. of 500 nm or higher.
Response line: met

Prompt line: Test whether the compound Cc1c(CC(=O)O)c(=O)oc2cc(O)ccc12 records Em. Max. of 500 nm or higher.
Response line: not met

====

# testDescription: Solubility in water / aqueous solution
# setupConditions: solubility of the reactive form of the dye; grade in words
parameterMeasured: Water Solubility

> print(dat)
                                   compound  resultvalue
1  CN(C)c1cccc2c(S(=O)(=O)O)cccc12 [Dansyl]          low
2  Cc1c(CC(=O)O)c(=O)oc2cc(N)ccc12 [AMCA, 7-amino-4-methylcoumarin-3-acetic acid]          low
3  NNC(=O)COc1cc(S(=O)(=O)[O-])c2ccc3c(S(=O)(=O)[O-])cc(S(=O)(=O)[O-])c4ccc1c2c43.[Na+].[Na+].[Na+] [Compound 12]         high
4  O=S(=O)(O)c1cc(N=C=S)c2ccc3c(S(=O)(=O)O)cc(S(=O)(=O)O)c4ccc1c2c34 [IPTS]         high
5  Cc1c(CC(=O)O)c(=O)oc2cc(O)ccc12 [Compound 4-MUA]          low
6  CC(=O)Nc1ccc(/C=C/c2ccc(N=C=S)cc2S(=O)(=O)O)c(S(=O)(=O)O)c1 [SITS]         high

Next item in the queue.
Prompt line: What does the data say about its Water Solubility? Entry: O=C(O)CCCc1ccc2ccc3cccc4ccc1c2c34 [PBA, pyrene-1-butyric acid]
Response line: low
